Target Or System: T1, Recombinant Human EphA2, CF (human, UniProt P29317 25-534)
T1 construct: Bought recombinant protein; also called hEphA2; recombinant hEphA2
T1 sequence (P29317 25-534 limits assumed): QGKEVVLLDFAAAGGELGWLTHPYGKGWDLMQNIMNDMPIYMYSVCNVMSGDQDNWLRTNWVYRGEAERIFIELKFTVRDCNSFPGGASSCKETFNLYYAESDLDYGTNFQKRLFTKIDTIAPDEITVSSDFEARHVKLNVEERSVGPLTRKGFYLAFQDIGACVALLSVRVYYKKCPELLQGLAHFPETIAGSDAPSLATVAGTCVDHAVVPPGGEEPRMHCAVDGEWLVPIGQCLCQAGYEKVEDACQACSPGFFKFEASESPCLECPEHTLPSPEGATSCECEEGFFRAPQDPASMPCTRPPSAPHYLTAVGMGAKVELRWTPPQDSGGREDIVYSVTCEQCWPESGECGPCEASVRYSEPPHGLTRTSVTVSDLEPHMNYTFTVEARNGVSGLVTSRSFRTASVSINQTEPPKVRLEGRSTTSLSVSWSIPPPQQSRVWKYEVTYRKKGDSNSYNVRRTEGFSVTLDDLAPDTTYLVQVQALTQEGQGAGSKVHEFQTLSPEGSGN
Experiment Description: phage ELISA, hEphA2 immobilized on a Maxisorp plate, two-fold dilutions of phage stock, anti-M13-HRP, OD405 nm [A) (1]
Measured Parameter: binding result

binder="SLSCRKEQGKHYLLKEYDCDSCASECGYHPDYCAYFCEN (designed binder, also called α-EphA2 #3) [α-EphA2 TACI_d2 #3]" measured_value=binds
binder="SLSCRKEQGKMYLLKEWDCASCASACGNHPHYCAYFCEN (designed binder, also called α-EphA2 #2) [α-EphA2 TACI_d2 #2]" measured_value=binds
binder="SLSCRKEQGKQYLLREWDCDSCASECGSHPHYCAYFCEN (designed binder, also called α-EphA2 #1) [α-EphA2 TACI_d2 #1]" measured_value=binds
